Test method notes: pKa measurement of Compound 1
Assay type: physicochemical
Condition parameters: measured pKa; free base
Metric: pKa

* C=CC(=O)N1C[C@H](C)N(c2nc(=O)n(-c3c(C4CC4)ncnc3C3CC3)c3nc(-c4c(N)cccc4F)c(F)cc23)C[C@H]1C | ~1
